Test system: P-gp
Assay: in vitro
Details: human, Caco-2, pH 7.4
measured-quantity: Papp B→A at 120 min (×10⁻⁶ cm/s)
Give bare numbers, in ×10⁻⁶ cm/s.

Exercise: Papp B→A at 120 min lookup needed for C[C@H]1O[C@@H](O[C@H]2[C@@H](O)C[C@H](O[C@H]3[C@@H](O)C[C@H](O[C@H]4CC[C@@]5(C)[C@H](CC[C@@H]6[C@@H]5C[C@@H](O)[C@]5(C)[C@@H](C7=CC(=O)OC7)CC[C@]65O)C4)O[C@@H]3C)O[C@@H]2C)C[C@H](O)[C@@H]1O [Digoxin, digoxin] , thanks.
Solution: 8.93

----------
Assay: Compound 2 and metabolites in rat plasma, 50 mg/kg PO QD×10
Format: in vivo
Settings: rat plasma; Compound 2 50 mg/kg PO QD×10; 2 h post tenth dose
measured-quantity: Average Concentration (ng/mL)
Answers are plain numbers, in ng/mL.

Example entries and their recorded answers appear below.
CCn1c(C#CCNc2ccc(C)nc2)cc2cc(CNC3CCOCC3)ccc21	29.98
CCn1c(C#CCNc2ccc(Cl)cc2)cc2cc(CNC3CCN(C)CC3)ccc21	1.81
CCn1c(C#CCNc2ccccc2)cc2cc(CNCc3ccccc3)ccc21	53.88

Exercise: Average Concentration lookup needed for CCn1c(C#CCNc2ccc(F)cc2)cc2cc(CNC)ccc21 , thanks.
Solution: 637.50

----------
Biological target: CYP2C8 (Homo sapiens, UniProt P10632)
Sequence (P10632 1-490): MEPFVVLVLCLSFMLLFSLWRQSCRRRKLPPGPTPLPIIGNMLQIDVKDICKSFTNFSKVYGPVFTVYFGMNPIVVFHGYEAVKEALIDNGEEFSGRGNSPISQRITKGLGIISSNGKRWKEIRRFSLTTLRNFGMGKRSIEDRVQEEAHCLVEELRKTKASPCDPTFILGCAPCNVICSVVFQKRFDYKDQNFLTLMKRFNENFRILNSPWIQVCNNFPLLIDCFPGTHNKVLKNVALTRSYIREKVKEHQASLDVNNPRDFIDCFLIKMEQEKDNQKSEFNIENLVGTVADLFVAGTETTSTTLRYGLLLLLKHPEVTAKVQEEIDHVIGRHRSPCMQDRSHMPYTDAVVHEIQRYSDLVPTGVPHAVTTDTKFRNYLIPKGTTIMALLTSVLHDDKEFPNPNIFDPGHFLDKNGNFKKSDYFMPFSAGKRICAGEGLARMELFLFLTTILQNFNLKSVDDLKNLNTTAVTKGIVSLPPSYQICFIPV
Assay: in vitro
Conditions: both, microsomes, pH 7.4
measured-quantity: activity at 20 min, 0.123 µM (%)
One number for each entry, in %.

Exercise: activity at 20 min, 0.123 µM lookup needed for CC(C)(O)c1ccccc1CC[C@@H](SCC1(CC(=O)O)CC1)c1cccc(/C=C/c2ccc3ccc(Cl)cc3n2)c1 , thanks.
Solution: 54

----------
Target: CYP2D6 (Homo sapiens)
Sequence (P10635 whole entry): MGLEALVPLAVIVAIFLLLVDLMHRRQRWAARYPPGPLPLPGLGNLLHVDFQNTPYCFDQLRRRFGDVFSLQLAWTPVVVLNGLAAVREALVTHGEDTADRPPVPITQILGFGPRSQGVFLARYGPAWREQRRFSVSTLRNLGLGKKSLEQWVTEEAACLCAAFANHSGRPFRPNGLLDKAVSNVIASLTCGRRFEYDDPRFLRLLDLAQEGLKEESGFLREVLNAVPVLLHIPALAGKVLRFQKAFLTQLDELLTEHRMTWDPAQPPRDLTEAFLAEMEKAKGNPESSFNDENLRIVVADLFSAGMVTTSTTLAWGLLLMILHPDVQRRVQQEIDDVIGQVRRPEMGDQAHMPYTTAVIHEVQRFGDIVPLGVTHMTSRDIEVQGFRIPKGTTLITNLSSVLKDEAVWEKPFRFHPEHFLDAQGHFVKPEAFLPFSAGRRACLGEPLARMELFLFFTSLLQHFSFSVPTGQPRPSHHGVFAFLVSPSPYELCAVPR
Test: in vitro
Settings: both, microsomes, pH 7.4, % of Control Enzyme Activity
measured-quantity: activity at 30 min, 0.123 µM

Exercise: activity at 30 min, 0.123 µM lookup needed for Fc1ccc([C@@H]2CCNC[C@H]2COc2ccc3c(c2)OCO3)cc1 , thanks.
Solution: 95.8%

----------
Target: CYP2C9 (Homo sapiens, UniProt P11712)
Sequence (P11712 whole entry): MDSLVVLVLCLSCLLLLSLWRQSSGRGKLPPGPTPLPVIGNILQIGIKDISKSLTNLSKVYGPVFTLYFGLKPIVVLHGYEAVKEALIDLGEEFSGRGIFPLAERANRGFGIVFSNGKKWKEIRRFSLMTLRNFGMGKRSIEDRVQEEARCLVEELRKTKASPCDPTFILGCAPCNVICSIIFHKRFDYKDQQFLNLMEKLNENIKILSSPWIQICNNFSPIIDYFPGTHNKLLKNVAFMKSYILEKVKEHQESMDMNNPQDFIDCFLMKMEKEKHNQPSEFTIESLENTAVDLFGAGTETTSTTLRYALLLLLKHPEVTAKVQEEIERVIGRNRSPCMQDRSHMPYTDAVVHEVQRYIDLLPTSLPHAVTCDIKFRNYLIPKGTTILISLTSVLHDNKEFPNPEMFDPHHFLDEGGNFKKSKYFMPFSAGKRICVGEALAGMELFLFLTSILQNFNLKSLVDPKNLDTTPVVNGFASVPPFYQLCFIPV
Assay: CYP inhibition in human liver microsomes
Assay type: in vitro ADME
Design: from tissue; host or cells: pooled human liver microsomes, 200 donors
Settings: both sexes, pooled human liver microsomes, pH 7.4, HLM, 10.0 μM, read-out: % of Control Enzyme Activity
measured-quantity: activity at 20 min, 10 µM (%)
Numbers only, in %.

Exercise: activity at 20 min, 10 µM lookup needed for Nc1ccc(S(=O)(=O)Nc2ccnn2-c2ccccc2)cc1 , thanks.
Solution: 7.69
